- assay explanation: Caco-2 membrane permeability, improved method as used in the following Examples (96-well, 20 to 24 h preincubation)
- Format: in vitro ADME
- protocol conditions: human, Caco-2, Caco-2 (cm/sec)
Starred links: 1 amine or outer side, 2 acyl side, 3 side chain; linkers in the order of their positions; H or OH if unused. Positions of bridges follow the written chain, without caps; N, C: chain ends. Non-standard residues stand in square brackets, D forms with d. Residues, ends and D or L forms follow the SMILES beside them. *: point of attachment. Phe(4-CF3) = N[C@@H](Cc1ccc(C(F)(F)F)cc1)C(=O)O; NMeAla(4-thiazolyl) = CN[C@@H](Cc1cscn1)C(=O)O; Tyr(3-F) = N[C@@H](Cc1ccc(O)c(F)c1)C(=O)O; NMeW = CN[C@@H](Cc1c[nH]c2ccccc12)C(=O)O; NMeF = CN[C@@H](Cc1ccccc1)C(=O)O; NMeGABA = CN(CCCC(=O)[*:2])[*:1]; NMeI = CC[C@H](C)[C@H](NC)C(=O)O; NMeL = CN[C@@H](CC(C)C)C(=O)O; NMeA = CN[C@@H](C)C(=O)O; Piperidide = C1CCN(*)CC1; NPrGly = CCCNCC(=O)O; Sar = CNCC(=O)O; tBu = CC(C)(C)*
endpoint name: Papp A→B at 180 min (nm/s)
Write down the numeric answer in nm/s and omit the unit.

Exercise: Look at this molecule and give its reported Papp A→B at 180 min. CCCN1CC(=O)N(C)[C@@H](CC(C)C)C(=O)N[C@@H](COC(C)(C)C)C(=O)N[C@H](C(=O)N2CCCCC2)CC(=O)N(C)[C@@H](CC(C)C)C(=O)N[C@@H](Cc2ccc(C(F)(F)F)cc2)C(=O)N(C)[C@@H](CC(C)C)C(=O)N(C)[C@@H]([C@@H](C)CC)C(=O)N[C@@H]([C@@H](C)O)C1=O [pd152] ([NMeL][Phe(4-CF3)][NMeL][NMeI]T[NPrGly][NMeL]S(tBu)D-Piperidide; lactam N-9)
Solution: 12

Exercise: Entry to check: CC[C@H](C)[C@H]1C(=O)N[C@@H]([C@@H](C)O)C(=O)N(C)CC(=O)N(C)[C@@H](CC(C)C)C(=O)N[C@H](C(=O)N2CCCCC2)CC(=O)N(C)[C@@H](CC(C)C)C(=O)N[C@@H](CC(C)C)C(=O)N(C)[C@@H](CC(C)C)C(=O)N(C)[C@@H](Cc2c[nH]c3ccccc23)C(=O)N[C@@H](CC(C)C)C(=O)N(C)[C@@H](Cc2ccccc2)C(=O)N1C [pd111] ([NMeL]L[NMeL][NMeW]L[NMeF][NMeI]T[Sar][NMeL]D-Piperidide; lactam N-11)
Solution: 1.6

Exercise: Can you handle CC[C@H](C)[C@H]1C(=O)N[C@@H](Cc2ccc(O)cc2)C(=O)N(C)CC(=O)N(C)[C@@H](CC(C)C)C(=O)N[C@H](C(=O)N2CCCCC2)CC(=O)N(C)[C@@H](C)C(=O)N[C@@H](C(C)C)C(=O)N(C)[C@@H](CC(C)C)C(=O)N(C)[C@@H](CC(C)C)C(=O)N[C@@H](C)C(=O)N(C)[C@@H](Cc2ccccc2)C(=O)N1C [pd126] ([NMeA]V[NMeL][NMeL]A[NMeF][NMeI]Y[Sar][NMeL]D-Piperidide; lactam N-11) next?
Solution: 4.2

Exercise: Same for CC(C)C[C@H]1C(=O)N[C@H](C(=O)N2CCCCC2)CC(=O)N(C)CCCC(=O)N(C)[C@@H](CC(C)C)C(=O)N[C@@H](Cc2ccc(O)c(F)c2)C(=O)N(C)[C@@H](CC(C)C)C(=O)N(C)[C@@H](Cc2ccccc2)C(=O)N[C@@H](COC(C)(C)C)C(=O)N(C)[C@@H](CC(C)C)C(=O)N[C@@H]([C@@H](C)O)C(=O)N(C)CC(=O)N1C [pd114] ([NMeGABA][NMeL][Tyr(3-F)][NMeL][NMeF]S(tBu)[NMeL]T[Sar][NMeL]D-Piperidide; lactam N-11)
Solution: 1.7

Exercise: Do the same for CC(C)C[C@@H]1NC(=O)[C@H](Cc2ccccc2)N(C)C(=O)[C@H](C)N(C)C(=O)C[C@@H](C(=O)N2CCCCC2)NC(=O)[C@H](CC(C)C)N(C)C(=O)[C@H](Cc2ccccc2)N(C)C(=O)[C@H](Cc2ccccc2)NC(=O)[C@H](Cc2cscn2)N(C)C(=O)[C@H](C)N(C)C(=O)[C@H](CC(C)C)N(C)C(=O)[C@H]([C@@H](C)O)NC1=O [pd238] ([NMeA][NMeF]LT[NMeL][NMeA][NMeAla(4-thiazolyl)]F[NMeF][NMeL]D-Piperidide; lactam N-11) please
Solution: 0.88
